- assay.protocol: Toxicity in Bombyx mori Shunrei x Shougetsu fourth-instar larvae assessed as mortality at 160 ug applied topically
- Type: organism-based
- condition.description: in vivo, topical or ocular
assay.readout: mortality (%)

C(=C/c1cccnc1)/c1ccccc1 :: 100
